- system under test: Neutrophil elastase (Homo sapiens) (UniProt P08246)
- Sequence (P08246 whole entry): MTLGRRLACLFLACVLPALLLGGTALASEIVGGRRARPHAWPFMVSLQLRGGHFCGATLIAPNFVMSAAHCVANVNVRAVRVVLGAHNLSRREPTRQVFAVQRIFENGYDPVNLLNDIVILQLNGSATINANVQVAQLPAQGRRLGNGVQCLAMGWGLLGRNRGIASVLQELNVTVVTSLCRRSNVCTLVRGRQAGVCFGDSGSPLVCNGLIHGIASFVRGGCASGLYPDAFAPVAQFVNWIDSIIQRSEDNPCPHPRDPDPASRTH
- assay details: Inhibition of human leukocyte elastase at 25 uM assessed as Kinact/Ki ratio incubated for 15 mins by spectrofluorometry
readout kind: Ratio
Express your answer as a number followed by its unit.

// below: answered compounds
1. COc1ccc(C(=O)N[C@H](C(=O)N2CCC[C@H]2C(=O)N[C@H](C(C)C)P(=O)(Oc2ccc(SC)cc2)Oc2ccc(SC)cc2)C(C)C)cc1 :: 4800 M⁻¹ s⁻¹
2. CC(C)CC(NC(=O)[C@@H]1CCCN1C(=O)[C@@H](NC(=O)OC(C)(C)C)C(C)C)P(=O)(Oc1ccc(Cl)cc1)Oc1ccc(Cl)cc1 (mixture of isomers) :: 3400 M⁻¹ s⁻¹
3. CSCC[C@H](NC(=O)OCc1ccccc1)C(=O)N1CCC[C@H]1C(=O)NC(C(C)C)P(=O)(Oc1ccc(SC)cc1)Oc1ccc(SC)cc1 (mixture of isomers) :: 223000 M⁻¹ s⁻¹
4. CC(C)CC(NC(=O)[C@@H]1CCCN1C(=O)[C@@H](NC(=O)OC(C)(C)C)C(C)C)P(=O)(Oc1ccccc1)Oc1ccccc1 (mixture of isomers) :: 325 M⁻¹ s⁻¹

Observed Ratio on Neutrophil elastase (Homo sapiens) (UniProt P08246) for COc1ccc(C(=O)N[C@H](C(=O)N2CCC[C@H]2C(=O)NC(C(C)C)P(=O)(Oc2ccc(SC)cc2)Oc2ccc(SC)cc2)C(C)C)cc1 (mixture of isomers) , please.
304000 M⁻¹ s⁻¹

Observed Ratio on Neutrophil elastase (Homo sapiens) (UniProt P08246) for CCCCC(NC(=O)[C@@H]1CCCN1C(=O)[C@@H](NC(=O)OC(C)(C)C)C(C)C)P(=O)(Oc1ccccc1)Oc1ccccc1 (mixture of isomers) , please.
650 M⁻¹ s⁻¹
